Tested on: L1210 leukemia ip in BDF1 mice, survival T/C
Assay: NCI In Vivo Anticancer Drug Screen. Data for tumor model L1210 Leukemia (intraperitoneal) in B6D2F1 (BDF1) mice
Conditions: endpoint: mean survival time; dose: 200.0 mg/kg/injection; schedule: Q01DX001 (ip); vehicle: other
Experimental: The antitumor activity of compounds was measured in mice bearing transplantable tumors. Survival or tumor size were measured and the results are expressed as the measurement made in the treated group (T) divided by the measurement made in the vehicle treated control group (C). The tumor model used in this assay is L1210 Leukemia (intraperitoneal) in B6D2F1 (BDF1) mice
Toxic doses and inconclusive results are not listed. No stated cut-off is given here; in the data, active means T/C of 150% or more; inactive means T/C below 125%.
Outcomes: label 1 for active, label 0 for inactive

CN(C)c1ccc(/C=C/C=N/Nc2nnc(N/N=C/C=C/c3ccc(N(C)C)cc3)c3ccccc23)cc1 = label 0
N=[N+]=CC(=O)CCC(NC(=O)C(CCC(=O)C=[N+]=N)NC(=O)CCC(N)C(=O)O)C(=O)O (configuration not stated) = label 1
Cc1ccc(NC(=O)c2cc3ccccc3cc2O)c(C)c1 = label 0
CC(C)C1(C(C)C)NC(=O)NC1=O = label 0
COC(=O)c1ccc(N(C)CCC(C)=O)cc1 = label 0
CCCN(C)N=Nc1ccccc1C(N)=O = label 0
Brc1ccc(Br)c2cnccc12 = label 0
NC(=O)c1cc([N+](=O)[O-])ccc1N = label 0
COc1cc2ccc(C(N)=O)cc2cc1OC = label 0
Cc1c(C)c2cc(Br)ccc2[nH]c1=O = label 0
CCCCNC(=O)c1cccc2c1-c1ccccc1C2=O = label 0
O=C(O)c1ccccc1N=Cc1ccccc1O.[Co] = label 0
COc1ccccc1N=Cc1ccccc1O.[Co] = label 0
[CH3][Sn]1([CH3])[c]2ccccc2Oc2cccc[c]21 = label 0
OC(CCl)CNc1ccc(-c2ccccc2)cc1 (configuration not stated) = label 0
NC(=O)NN=C1CCCCCCCCCCC1 = label 0
CCCCC(=O)c1cc(OC)cc(OC)c1 = label 0

----------
System: L1210 leukemia ip in BDF1 mice, survival T/C
Assay: NCI In Vivo Anticancer Drug Screen. Data for tumor model L1210 Leukemia (intraperitoneal) in B6D2F1 (BDF1) mice
Conditions: endpoint: mean survival time; dose: 15.0 mg/kg/injection; schedule: Q01DX Z (ip); vehicle: methylcellulose (MC); higher = longer survival
Inconclusive results and toxic doses are left out.
attribute-measured: T/C

O=P1(N(CCCl)CCCl)NCCCO1 (centres undefined) = 100 % of control
Cc1ccc(/C(=N\N=C(N)N)C2CC2)cc1 = 102 % of control
CCCn1cnc2c(=S)nc(N)[nH]c21 = 105 % of control
O=C(Nc1ccc(NC2=NCCN2)cc1)c1ccc(C(=O)Nc2ccc(NC3=NCCN3)cc2)cc1 = 184 % of control

----------
# T/C per record follows
Test system: L1210 leukemia ip in BDF1 mice, survival T/C
Assay: NCI In Vivo Anticancer Drug Screen. Data for tumor model L1210 Leukemia (intraperitoneal) in B6D2F1 (BDF1) mice
Settings: endpoint: mean survival time; dose: 200.0 mg/kg/injection; schedule: Q01DX001 (ip); vehicle: carboxymethylcellulose (CMC); higher = longer survival
Inconclusive results and toxic doses are left out.
attribute-measured: T/C

CC(CO)(CO)N=Cc1ccc(N(CCCl)CCCl)cc1 = 97 % of control
O=C1CCC(=O)N1c1ccc(Br)cc1 = 98 % of control
CCOC(=O)NC(N)=O = 95 % of control
ClC(=Nc1ccccc1)c1cc(Cl)ccn1 = 94 % of control
Cc1cccc(/C=N/N(C)C(N)=S)n1 = 106 % of control
COc1ccc(Br)cc1CCC=O = 100 % of control
CCOC(=O)Nc1cc(NC(c2ccccc2)c2ccccc2)c([N+](=O)[O-])c(N)n1 = 91 % of control
